Measured values drawn from patent US20130315914A1 for this set.

Target: T1, cynomolgus monkey TLR4 expressed on stably transfected CHO-K1 cells (cynomolgus monkey, UniProt Q9TSP2 24-826 (Papio anubis entry))
T1 construct: Transfected alone; also called CHO cells expressing the cynomolgus monkey TLR4
T1 chain: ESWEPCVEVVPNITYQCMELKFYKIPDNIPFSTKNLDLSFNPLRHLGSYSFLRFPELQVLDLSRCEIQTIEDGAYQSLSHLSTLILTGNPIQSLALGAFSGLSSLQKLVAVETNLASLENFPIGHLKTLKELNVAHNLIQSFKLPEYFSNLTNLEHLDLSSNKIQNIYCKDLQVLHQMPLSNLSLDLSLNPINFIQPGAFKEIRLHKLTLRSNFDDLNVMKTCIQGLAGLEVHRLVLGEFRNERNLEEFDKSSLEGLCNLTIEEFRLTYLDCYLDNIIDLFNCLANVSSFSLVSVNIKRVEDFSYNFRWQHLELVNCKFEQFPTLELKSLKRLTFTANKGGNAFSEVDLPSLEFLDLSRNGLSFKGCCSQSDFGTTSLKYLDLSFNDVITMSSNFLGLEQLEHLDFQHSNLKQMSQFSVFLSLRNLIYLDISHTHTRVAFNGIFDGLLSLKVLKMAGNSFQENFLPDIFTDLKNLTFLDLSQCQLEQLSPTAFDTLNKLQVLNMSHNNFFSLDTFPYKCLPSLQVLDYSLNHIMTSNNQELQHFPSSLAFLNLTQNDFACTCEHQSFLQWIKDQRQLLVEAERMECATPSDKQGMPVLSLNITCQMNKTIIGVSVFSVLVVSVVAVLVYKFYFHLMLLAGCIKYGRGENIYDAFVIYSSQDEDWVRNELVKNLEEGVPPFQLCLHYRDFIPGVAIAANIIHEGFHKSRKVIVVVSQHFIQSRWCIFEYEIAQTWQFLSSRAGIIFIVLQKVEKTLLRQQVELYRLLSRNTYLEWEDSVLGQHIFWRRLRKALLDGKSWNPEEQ
Assay: summary grade (species binding potential); assay not given
reported-metric: binding result

{"binder": "1E11.C2E5 antibody (IgG1) (antibody, V domains shown) VH: QVQLQESGPGLVKPSDTLSLTCAVSGYPIRFGYSWHWIRQPPGKGLEWMGYIHYSGYTDFNPSLKTRITISRDTSKNQFSLKLSSVTAVDTAVYYCARKDSGNYFPYWGQGTLVTVSS VL: EIVLTQSPDFQSVTPKEKVTITCRASQSISDHLHWYQQKPDQSPKLLIKYASHAISGVPSRFSGSGSGTDFTLTINSLEAEDAATYYCQQGYEFPLTFGGGTKVEIK", "assay-result": "binds"}
{"binder": "1E11.E2 antibody (IgG1) (antibody, V domains shown) VH: QVQLQESGPGLVKPSDTLSLTCAVSGYSITGGYSWHWIRQPPGKGLEWMGYIHYSGYTDFNPSLKTRITISRDTSKNQFSLKLSSVTAVDTAVYYCARKDSGNYFPYWGQGTLVTVSS VL: EIVLTQSPDFQSVTPKEKVTITCRASQSISDHLHWYQQKPDQSPKLLIKYASHAISGVPSRFSGSGSGTDFTLTINSLEAEDAATYYCQQGYDEPFTFGGGTKVEIK", "assay-result": "binds"}
